- target_system: Adenosine receptor A2a (Homo sapiens, UniProt P29274)
- Sequence (P29274 whole entry): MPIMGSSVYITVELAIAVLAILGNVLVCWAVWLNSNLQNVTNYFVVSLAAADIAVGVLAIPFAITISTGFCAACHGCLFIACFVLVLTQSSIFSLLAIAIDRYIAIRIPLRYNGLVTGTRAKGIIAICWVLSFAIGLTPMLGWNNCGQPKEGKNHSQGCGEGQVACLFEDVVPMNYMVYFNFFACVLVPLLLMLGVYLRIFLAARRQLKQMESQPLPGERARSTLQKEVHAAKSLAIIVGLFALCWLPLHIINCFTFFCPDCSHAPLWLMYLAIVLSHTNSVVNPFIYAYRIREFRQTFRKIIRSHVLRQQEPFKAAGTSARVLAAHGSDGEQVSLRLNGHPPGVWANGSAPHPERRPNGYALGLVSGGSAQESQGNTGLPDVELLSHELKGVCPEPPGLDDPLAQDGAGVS
- experiment_summary: Displacement of [3H]ZM241385 from human adenosine A2A receptor expressed in human HeLa cell membranes after 30 mins
readout_name: pKi
One number for each entry, as −log10 of the molar value.

Problem: Which value of pKi has been reported for `COc1cccc(-c2cc(NC(C)=O)nc(-c3cccc(OC)c3OC)c2)c1OC` in the records?
Result: 6.45

----------
Field: inhibition. Provide a value for each of the molecules that follow.
- target_system: UniProt P29274
- experiment_summary: Displacement of [3H]ZM241385 from human adenosine A2A receptor expressed in human HeLa cell membranes at 1 uM after 30 mins relative to control
Answers are plain numbers, in %.

Solved cases (2 shown):
- entry_smiles: "COc1ccccc1-c1cc(NC(C)=O)nc(-c2ccccc2OC)c1"
  result_unit: "%"
  inhibition: 1
- entry_smiles: "CC(=O)Nc1cc(-c2ccc(C(C)=O)cc2)cc(-c2ccc(C(C)=O)cc2)n1"
  result_unit: "%"
  inhibition: 4

Respectfully, I request inhibition for each entry included below.
1. CC(=O)Nc1cc(-c2ccc(C)cc2)cc(-c2ccc(C)cc2)n1
2. CC(=O)Nc1cc(-c2ccc(OC(F)(F)F)cc2)cc(-c2ccc(OC(F)(F)F)cc2)n1
3. COc1ccc(-c2cc(NC(C)=O)nc(-c3ccc(OC)cc3)c2)cc1

Result:
1: 1; 2: 1; 3: 15
